Let's look at some binders and their measured kon.
tested_system: T1, huNectin4-His (human, UniProt Q96NY8 32-349)
T1 construct: Immobilized on the SPR chip; also called humanNectin4; human Nectin4; not shown: His tag
T1 sequence (looked up): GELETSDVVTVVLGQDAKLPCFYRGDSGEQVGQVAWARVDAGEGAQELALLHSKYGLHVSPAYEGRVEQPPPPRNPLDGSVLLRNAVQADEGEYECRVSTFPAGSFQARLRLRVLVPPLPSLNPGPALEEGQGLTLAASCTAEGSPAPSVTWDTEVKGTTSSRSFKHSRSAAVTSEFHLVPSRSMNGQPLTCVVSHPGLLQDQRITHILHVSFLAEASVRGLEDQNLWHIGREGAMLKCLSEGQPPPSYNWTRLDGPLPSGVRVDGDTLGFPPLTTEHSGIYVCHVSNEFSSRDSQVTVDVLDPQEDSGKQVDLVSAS
test_summary: SPR, huNectin4-His immobilized, pH 6.0
Numeric only. Scale: M⁻¹ s⁻¹

Query :: State its kon for this binder: BAP-143-00-03 (antibody, V domains shown, Used as a conjugate with a linker payload (CAB ADC)) VH: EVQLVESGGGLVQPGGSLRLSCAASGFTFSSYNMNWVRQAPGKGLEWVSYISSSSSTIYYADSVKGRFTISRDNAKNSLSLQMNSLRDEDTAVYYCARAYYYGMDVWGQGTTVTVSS VL: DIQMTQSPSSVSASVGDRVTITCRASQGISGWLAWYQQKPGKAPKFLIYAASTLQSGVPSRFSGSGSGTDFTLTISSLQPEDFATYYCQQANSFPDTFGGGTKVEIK
Result :: 203000

Query :: State its kon for this binder: BAP-143-00-04 (antibody, V domains shown, Used as a conjugate with a linker payload (CAB ADC)) VH: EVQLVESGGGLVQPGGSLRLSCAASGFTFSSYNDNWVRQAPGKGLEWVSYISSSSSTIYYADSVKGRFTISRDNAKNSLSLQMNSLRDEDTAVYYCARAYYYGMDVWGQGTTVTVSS VL: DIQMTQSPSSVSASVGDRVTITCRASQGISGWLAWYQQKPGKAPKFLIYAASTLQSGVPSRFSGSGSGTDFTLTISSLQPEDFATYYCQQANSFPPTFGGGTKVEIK
Result :: 602000

Query :: State its kon for this binder: BAP-143-00-01 (antibody, V domains shown, Used as a conjugate with a linker payload (CAB ADC)) VH: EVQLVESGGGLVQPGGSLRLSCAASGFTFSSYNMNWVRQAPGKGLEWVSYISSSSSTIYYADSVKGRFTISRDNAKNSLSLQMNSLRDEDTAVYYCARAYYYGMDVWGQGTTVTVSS VL: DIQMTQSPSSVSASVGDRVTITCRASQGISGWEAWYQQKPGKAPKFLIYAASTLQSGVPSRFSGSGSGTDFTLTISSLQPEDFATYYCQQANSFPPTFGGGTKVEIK
Result :: 298000

Query :: State its kon for this binder: BAP-143-00-06 (antibody, V domains shown, Used as a conjugate with a linker payload (CAB ADC)) VH: EVQLVESGGGLVQPGGSLRLSCAASGFTFSSYNMNWVRQAPGKGLEWVSYISSSSSTIYYADSVKGRFTISRDNAKNSLSLQMNSLRDEDTAVYYCARAYYYGDDVWGQGTTVTVSS VL: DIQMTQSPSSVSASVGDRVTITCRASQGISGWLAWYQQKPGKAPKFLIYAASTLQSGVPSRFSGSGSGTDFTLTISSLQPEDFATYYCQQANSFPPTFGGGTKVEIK
Result :: 707000

Query :: State its kon for this binder: BAP-143-00-05 (antibody, V domains shown, Used as a conjugate with a linker payload (CAB ADC)) VH: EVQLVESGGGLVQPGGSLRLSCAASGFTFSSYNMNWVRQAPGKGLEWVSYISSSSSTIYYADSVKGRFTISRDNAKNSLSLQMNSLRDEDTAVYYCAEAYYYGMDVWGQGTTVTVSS VL: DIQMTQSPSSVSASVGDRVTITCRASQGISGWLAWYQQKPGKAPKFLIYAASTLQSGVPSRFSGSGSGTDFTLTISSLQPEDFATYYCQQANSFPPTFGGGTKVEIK
Result :: 380000
